Source of measurements: the supplement of paper PMC10567573

B1: SMARCE1 (parent)
chain: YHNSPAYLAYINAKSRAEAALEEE

variants of: B1; test: protein stability index of a GFP-peptide fusion (GPS, HEK-293T) (PSI 1-6); higher = more stable; conditions: c terminus: a fixed tail appended;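 note: lentivirally expressed fusions sorted by FACS into six bins by GFP to DsRed ratio, PSI derived from sequencing read proportions per bin multiplied by bin number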
Listing of recorded protein stability index by entry.

Answered examples (4):
YHNSPAYLAYINWKSRAEAALEEE | 1.64
YHNSPAYLAYINAKSRAEAALEES | 3.47
YHNSPAYLAYINAKSRAELALEEE | 2.49
YHNSPAYLAYINAKSRMEAALEEE | 2.23

Query string: Can you look up the measured protein stability index of `YHNSPAYCAYINAKSRAEAALEEE` for me?
Result string: 3.05

Query string: Can you look up the measured protein stability index of `YHNSPAYLAYINAKFRAEAALEEE` for me?
Result string: 2.06

Query string: Can you look up the measured protein stability index of `YHNSPAYLAYINAKSRAEAALLEE` for me?
Result string: 4.41
